The entries below come with measured koff values attached.
- system_tested: T1, cyno PD-1 (SPR analyte) (cynomolgus monkey)
- T1 construct: Construct of the soluble analyte is not described; also called cynomolgus PD-1
- experimental_details: SPR, ProteOn XPR36, mAb captured by anti-human IgG Fc, cyno PD-1 as analyte, 25 C
Quick note: give the figure in s⁻¹, leave out the unit.

Data request: Look up koff of PD1B1094 (antibody, human IgG1, kappa, V domains shown, IgG1; also called PD1H586/PD1L652; E57H (VH), S30P (VL) variant of PD1B878) VH: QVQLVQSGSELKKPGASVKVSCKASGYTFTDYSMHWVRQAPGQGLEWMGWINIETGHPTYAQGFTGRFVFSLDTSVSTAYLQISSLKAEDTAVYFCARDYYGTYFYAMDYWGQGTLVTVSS VL: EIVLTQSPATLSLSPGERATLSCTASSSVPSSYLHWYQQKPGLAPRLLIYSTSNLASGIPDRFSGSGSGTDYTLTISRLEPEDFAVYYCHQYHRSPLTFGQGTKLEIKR and report it.
Data returned: 0.00162

API: the following record is the query input.
Data request: Look up koff of PD1B1092 (antibody, human IgG1, kappa, V domains shown, IgG1; also called PD1H587/PD1L651; E57W (VH), V29F (VL) variant of PD1B878) VH: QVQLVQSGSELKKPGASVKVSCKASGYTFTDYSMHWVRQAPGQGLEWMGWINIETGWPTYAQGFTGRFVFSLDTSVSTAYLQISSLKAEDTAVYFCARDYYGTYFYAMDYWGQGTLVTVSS VL: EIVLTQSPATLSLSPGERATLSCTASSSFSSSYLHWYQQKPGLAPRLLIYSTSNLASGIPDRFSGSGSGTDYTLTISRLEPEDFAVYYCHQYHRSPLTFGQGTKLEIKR and report it.
Data returned: 0.000411

Cited source for all entries: patent US20230340155A1
